# STUDY TARGET: TGF-beta receptor type-1 [4-503,T204D] (Homo sapiens, UniProt P36897, T204D)
# Construct: 4-503
# METHOD: Enzyme Assay and Luciferase Reporter Assay
# EXPERIMENTAL SETUP: pH 7.5; 30 °C
Each entry below carries its reported EC50.

COMPOUND | UNIT ANNOTATION | QUALIFIER OPERATOR | EC50
CCSc1cc(-c2c(-c3ccccn3)nn3c2CCC3)c2ccccc2n1 | nM | > | 20000
COc1cc(OC)c2nccc(-c3c(-c4cccc(C)n4)nn4c3CCC4)c2c1 | nM | = | 7200
CN1CCN(CCCOc2ccc3c(-c4c(-c5ccccn5)nn5c4CCC5)ccnc3c2)CC1 | nM | = | 44
c1ccc(-c2nn3c(c2-c2ccnc4cc(OCC5CCCO5)ccc24)CCC3)nc1 (stereo not given) | nM | = | 80
Cc1cccc(-c2nn3c(c2-c2ccnc4ccc(OC(F)(F)F)cc24)CCC3)n1 | nM | = | 201
Cc1cccc(-c2nn3c(c2-c2ccnc4ccc(C(=O)NCCN(C)C)cc24)CCC3)n1 | nM | = | 468
CN1CCN(CCOc2ccc3c(-c4c(-c5ccccn5)nn5c4CCC5)ccnc3c2)CC1 | nM | = | 38
Clc1cc(-c2c(-c3ccccn3)nn3c2CCC3)c2ccccc2n1 | nM | > | 20000
CN(C)C(=O)c1ccc(Oc2ccc3c(-c4c(-c5ccccn5)nn5c4CCC5)ccnc3c2)cc1 | nM | = | 15000
Cc1cccc(-c2nn3c(c2-c2ccnc4c(F)cccc24)CCC3)n1 | nM | = | 951
